Biological target: CD3 (antibody antigen coated on the ELISA plate in Examples 1 to 3) (Homo sapiens (Human)) (UniProt P07766)
Sequence (P07766 23-126 limits assumed): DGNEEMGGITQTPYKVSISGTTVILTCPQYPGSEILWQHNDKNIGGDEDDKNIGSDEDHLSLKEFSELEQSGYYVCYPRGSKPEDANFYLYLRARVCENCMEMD
Assay: binding activity of the conjugated mutant compared with the wild-type antibody (ELISA as in Example 1)
measured_attribute: Blocking fold after conjugation (+20K) (fold)
Answer with a number only, understood to be in fold.

Example cases with answers are listed next.
{"columns": ["binder", "Blocking fold after conjugation (+20K) / fold"],
 "data": [
  ["anti-CD3 antibody mutant VL-Y94C conjugated with Molecule I (+20K) (antibody, V domains shown, Molecule I (+20K, shown only as a drawing) conjugated on Cys 94) VH: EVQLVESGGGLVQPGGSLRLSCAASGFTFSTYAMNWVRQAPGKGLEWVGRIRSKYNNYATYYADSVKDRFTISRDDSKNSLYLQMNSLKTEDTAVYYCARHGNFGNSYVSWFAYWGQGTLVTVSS VL: QTVVTQEPSLTVSPGGTVTLTCRSSTGAVTTSNYANWVQQKPGQAPRGLIGGTNKRAPGVPARFSGSLLGDKAALTLLGAQPEDEAEYFCALWCSNLWVFGGGTKLTVL", 30],
  ["anti-CD3 antibody mutant VL-W93C conjugated with Molecule I (+20K) (antibody, V domains shown, Molecule I (+20K, shown only as a drawing) conjugated on Cys 93) VH: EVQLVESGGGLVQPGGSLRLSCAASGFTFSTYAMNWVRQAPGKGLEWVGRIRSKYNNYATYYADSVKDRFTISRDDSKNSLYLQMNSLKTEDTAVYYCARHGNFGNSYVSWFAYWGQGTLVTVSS VL: QTVVTQEPSLTVSPGGTVTLTCRSSTGAVTTSNYANWVQQKPGQAPRGLIGGTNKRAPGVPARFSGSLLGDKAALTLLGAQPEDEAEYFCALCYSNLWVFGGGTKLTVL", 5],
  ["anti-CD3 antibody mutant VL-K55C conjugated with Molecule I (+20K) (antibody, V domains shown, Molecule I (+20K, shown only as a drawing) conjugated on Cys 55) VH: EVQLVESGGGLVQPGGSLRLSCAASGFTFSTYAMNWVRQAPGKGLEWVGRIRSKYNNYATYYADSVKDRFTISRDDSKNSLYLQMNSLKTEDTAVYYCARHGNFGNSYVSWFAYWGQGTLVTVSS VL: QTVVTQEPSLTVSPGGTVTLTCRSSTGAVTTSNYANWVQQKPGQAPRGLIGGTNCRAPGVPARFSGSLLGDKAALTLLGAQPEDEAEYFCALWYSNLWVFGGGTKLTVL", 5]
]}

Please look at the following binder next.
Which Blocking fold after conjugation (+20K) value belongs to anti-CD3 antibody mutant VH-W111C conjugated with Molecule I (+20K) (antibody, V domains shown, Molecule I (+20K, shown only as a drawing) conjugated on Cys 111) VH: EVQLVESGGGLVQPGGSLRLSCAASGFTFSTYAMNWVRQAPGKGLEWVGRIRSKYNNYATYYADSVKDRFTISRDDSKNSLYLQMNSLKTEDTAVYYCARHGNFGNSYVSCFAYWGQGTLVTVSS VL: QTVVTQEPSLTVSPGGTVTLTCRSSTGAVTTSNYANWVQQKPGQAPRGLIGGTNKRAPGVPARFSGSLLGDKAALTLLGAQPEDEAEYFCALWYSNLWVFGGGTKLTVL ?
6

# credit: patent EP4578875A1
